Known residual binding, % of no competitor of a selection of binders
Biological target: T1, cMetECDHis (human, UniProt P08581 25-932, limits assumed, biotinylated in the cross-block ELISA of Example 17)
T1 construct: Expressed in HEK-293F cells; also called soluble cMetECDHis; biotinylated cMetECDHis
Experiment: cross-block ELISA; competitor 024
experimental-endpoint: residual binding, % of no competitor (%)

anti-c-Met HuMab 181 (IgG1) (antibody, V domains shown, also called TH1016-181; PC1016-181) VH: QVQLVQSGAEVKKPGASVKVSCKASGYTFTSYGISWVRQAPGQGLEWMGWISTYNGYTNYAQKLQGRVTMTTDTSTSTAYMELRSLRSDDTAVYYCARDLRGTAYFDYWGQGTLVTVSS VL: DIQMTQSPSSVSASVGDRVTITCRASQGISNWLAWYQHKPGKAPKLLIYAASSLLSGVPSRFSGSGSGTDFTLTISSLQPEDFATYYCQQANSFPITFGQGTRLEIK ... 4.3
IgG1-1016-069 (antibody, V domains shown, also called clone 069; TH1016-069) VH: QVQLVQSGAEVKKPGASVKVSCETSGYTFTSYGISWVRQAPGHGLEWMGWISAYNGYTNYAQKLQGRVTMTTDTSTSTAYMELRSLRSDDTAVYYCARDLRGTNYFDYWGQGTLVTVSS VL: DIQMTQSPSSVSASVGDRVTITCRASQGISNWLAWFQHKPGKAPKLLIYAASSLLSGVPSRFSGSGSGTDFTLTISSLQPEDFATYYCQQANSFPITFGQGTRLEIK ... 6.6
IgG1-024 (antibody, V domains shown, also called TH1016-024; PC1016-024) VH: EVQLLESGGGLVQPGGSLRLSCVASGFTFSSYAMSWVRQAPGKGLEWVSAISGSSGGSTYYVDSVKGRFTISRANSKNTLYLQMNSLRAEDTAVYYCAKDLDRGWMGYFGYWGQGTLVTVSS VL: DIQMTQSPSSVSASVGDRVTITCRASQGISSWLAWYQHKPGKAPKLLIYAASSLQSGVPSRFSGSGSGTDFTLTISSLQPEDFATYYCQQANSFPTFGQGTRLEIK ... 5.4
